System: CCRIS mutagenicity, Ames/micronucleus/aberration tests
METHOD SUMMARY: CCRIS mutagenicity studies
EXPERIMENTAL SETUP: Test System: MOUSE LYMPHOMA; Strain/Indicator: L5178Y (TK+/TK-); Metabolic Activation: RAT, LIVER, S-9, AROCLOR 1254; Method: SUSPENSION/PLATE
Calls of active or inactive are those of the source. How the calls were made is not given here.
Outcomes: active, inactive

INSERT INTO measurements (smiles_data, class_label) VALUES
  ('CC[n+]1c(-c2ccccc2)c2cc(N)ccc2c2ccc(N)cc21', 'active'),
  ('CC1=CC(=O)c2c(O)cccc2C1=O', 'active'),
  ('Cc1ncc[nH]1', 'inactive'),
  ('c1cnc2c(c1)ccc1cccnc12', 'active'),
  ('C/C=C/C=C/C=O', 'inactive'),
  ('c1ccc2c(c1)Cc1ccccc1-2', 'active'),
  ('CC(=O)N(O)CCCCCNC(=O)CCC(=O)N(O)CCCCCNC(=O)CCC(=O)N(O)CCCCCN', 'active'),
  ('Cc1cc(N)sn1', 'active');

---

System: CCRIS mutagenicity, Ames/micronucleus/aberration tests
METHOD SUMMARY: CCRIS mutagenicity studies
EXPERIMENTAL SETUP: Test System: AMES SALMONELLA TYPHIMURIUM; Strain/Indicator: TA98; Metabolic Activation: MOUSE, LIVER, S-9, AROCLOR 1254; Method: STANDARD PLATE
Active and inactive are the calls of the source. The rule behind the calls is not given here.
Outcomes: active, inactive

INSERT INTO results (compound, class_label) VALUES
  ('COc1ccc(N)cc1', 'inactive'),
  ('CC(C)Cc1ccc(C(C)C(=O)O)cc1 (centres undefined)', 'inactive'),
  ('CN(C)c1ccc(C(=O)c2ccc(N(C)C)cc2)cc1', 'inactive'),
  ('Nc1ccc(Cl)c(N)c1', 'active');

---

Tested on: CCRIS mutagenicity, Ames/micronucleus/aberration tests
METHOD SUMMARY: CCRIS mutagenicity studies
EXPERIMENTAL SETUP: Test System: AMES SALMONELLA TYPHIMURIUM; Strain/Indicator: TA1535; Metabolic Activation: NONE; Method: STANDARD PLATE
Activity calls are given as the source filed them. How the calls were made is not given here.
Outcomes: active, inactive

INSERT INTO results (molecule, class_label) VALUES
  ('Nc1ncn([C@@H]2O[C@H](CO)[C@@H](O)[C@@H]2O)c(=O)n1', 'inactive'),
  ('CCOC(=O)CNC(=O)C=[N+]=[N-]', 'active'),
  ('O=C(O)c1cc(Cl)cc2cccnc12', 'inactive'),
  ('NCCNC(=O)c1ccc(Cl)cn1', 'inactive'),
  ('CCOC(=O)CBr', 'inactive'),
  ('O=C1c2c(O)ccc([N+](=O)[O-])c2C(=O)c2c([N+](=O)[O-])ccc(O)c21', 'inactive'),
  ('CN(C)c1ccc(C(=C2C=CC(=[N+](C)C)C=C2)c2ccccc2)cc1', 'inactive'),
  ('CCC1(CC(=O)O)OCCc2c1[nH]c1c(C)cccc21 (configuration not stated)', 'inactive'),
  ('Cc1ncc2c(n1)CCC2', 'inactive'),
  ('Cl/C=C(\Cl)C(Cl)Cl', 'active'),
  ('O=[N+]([O-])c1cc(C(F)(F)F)cc([N+](=O)[O-])c1O', 'inactive'),
  ('O=NN(CC(=O)O)CC1(O)OCC(O)C(O)C1O (configuration not stated)', 'inactive'),
  ('Clc1ccc(CC2CO2)cc1 (configuration not stated)', 'active'),
  ('COCC1O[C@@H](O[C@@H]2C(COC)OC(OC)C(OC)C2OC)C(OC)C(OC)C1OC (some centres not stated)', 'inactive'),
  ('COc1ccc(N)cc1', 'inactive'),
  ('CS(=O)(=O)O', 'inactive'),
  ('c1ccc(-c2ccc(CC3CO3)cc2)cc1 (configuration not stated)', 'active'),
  ('CC(=O)OC/N=[N+](/C)[O-]', 'active'),
  ('CCN(CC)c1ccc(N=Nc2c(Cl)cc([N+](=O)[O-])cc2Cl)cc1', 'inactive'),
  ('c1ccc(CC2CO2)cc1 (configuration not stated)', 'active'),
  ('NCCNCCNCCN', 'inactive'),
  ('Cc1ncc[nH]1', 'inactive'),
  ('O=C1C=CC(=O)CC(=O)C1', 'inactive'),
  ('Cn1c2ccccc2c(=O)c2c(O)cc3c(c21)CC(C(C)(O)CCl)O3 (configuration not stated)', 'inactive'),
  ('O=CC1CO1 (configuration not stated)', 'active'),
  ('Cc1cc(N)cc(C)c1N', 'inactive'),
  ('O=C([O-])c1cc(N=Nc2ccc(-c3ccc(N/N=c4/c(=O)cc/c(=N\Nc5cc(S(=O)(=O)[O-])ccc5[O-])c4=O)cc3)cc2)ccc1[O-].[Cu+2].[Na+].[Na+]', 'inactive');
